# target.system: LHRH receptors (Rattus norvegicus)
# Construct: Pituitary membranes containing LHRH receptors are prepared in batches from quick-frozen rat pituitaries; tissue Hilltop Labs; host or cells: rat pituitary membranes
# protocol.summary: Receptor Binding (radioligand receptor binding assay)
# cond: table 3; rat pituitary membranes, radioiodinated [D-Leu^6 -des Gly^10 ]-LHRH ethyl amide 50 pM, 2 hours at 4° C.; read-out: Receptor Binding pkI (converted)
Square brackets hold non-standard residues; d marks the D form. Peptide text beside a SMILES is read from it. * marks the point of attachment. 1Naphthoyl = O=C(c1cccc2ccccc12)*; PhAc = O=C(Cc1ccccc1)*
readout.type: Ki (nM)

1: CCNC(=O)[C@@H]1CCCN1C(=O)[C@H](CCCNC(=N)N)NC(=O)[C@H](CC(C)C)NC(=O)[C@@H](Cc1c[nH]c2ccccc12)NC(=O)[C@H](Cc1ccc(O)cc1)NC(=O)[C@H](CO)NC(=O)Cc1ccccc1 [Compound 17] (PhAc-SY[dW]LRP-NHEt)
2: CCNC(=O)[C@@H]1CCCN1C(=O)[C@H](CCCNC(=N)N)NC(=O)[C@H](CC(C)C)NC(=O)[C@@H](CCCNC(=N)N)NC(=O)[C@H](Cc1ccc(O)cc1)NC(=O)[C@H](CO)NC(=O)c1cccc2ccccc12 [Compound 39] (1Naphthoyl-SY[dR]LRP-NHEt)
Request: Could you determine which record has the numerically smaller Ki? Candidates: 1 and 2 Could you answer with the label of the item you picked?
Result: 1
(1: 6.61 nM, 2: 117 nM)

---

# target.system: LHRH receptors (Rattus norvegicus, UniProt P30969)
# Construct: Pituitary membranes containing LHRH receptors are prepared in batches from quick-frozen rat pituitaries; tissue Hilltop Labs; host or cells: rat pituitary membranes
# Sequence (P30969 1-327): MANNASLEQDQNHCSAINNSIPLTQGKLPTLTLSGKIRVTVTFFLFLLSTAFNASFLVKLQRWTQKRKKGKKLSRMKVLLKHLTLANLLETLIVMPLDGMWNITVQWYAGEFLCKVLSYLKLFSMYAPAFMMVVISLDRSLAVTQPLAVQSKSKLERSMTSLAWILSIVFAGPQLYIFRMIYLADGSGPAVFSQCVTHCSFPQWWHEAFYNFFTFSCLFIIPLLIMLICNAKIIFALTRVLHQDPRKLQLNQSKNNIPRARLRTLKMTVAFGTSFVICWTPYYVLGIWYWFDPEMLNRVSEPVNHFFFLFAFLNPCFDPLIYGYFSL
# protocol.summary: Receptor Binding (radioligand receptor binding assay)
# cond: table 4; rat pituitary membranes, radioligand 50 pM, 2 hours at 4° C.; read-out: Receptor Binding pkI (converted)
Numbered stars: 1 amine (or outer) side, 2 acyl side, 3 side chain; on linkers, the order of the positions; unused ones are H or OH. Square brackets hold non-standard residues; d marks the D form. Side chains are listed from the residue outwards. Peptide text beside a SMILES is read from it. * marks the point of attachment. Propanoyl(3-(4-F-phenyl)) = O=C(CCc1ccc(F)cc1)*; X10 = O=C([C@@H](Cc1cncs1)N[*:1])[*:2]; 1Nal = N[C@@H](Cc1cccc2ccccc12)C(=O)O; d1Nal = N[C@H](Cc1cccc2ccccc12)C(=O)O; Lys(iPr) = CC(C)NCCCC[C@H](N)C(=O)O; NMeY = CN[C@@H](Cc1ccc(O)cc1)C(=O)O; hhPhe = N[C@@H](CCCc1ccccc1)C(=O)O; Benzoyl(4-F) = O=C(c1ccc(F)cc1)*; d3Pal = N[C@H](Cc1cccnc1)C(=O)O; Cha = N[C@@H](CC1CCCCC1)C(=O)O; d2Thi = N[C@H](Cc1cccs1)C(=O)O; Nicotinoyl = O=C(c1cccnc1)*; Morpholide = C1CN(*)CCO1; Orn = NCCC[C@H](N)C(=O)O; CO = O=C([*:1])[*:2]
readout.type: Ki (nM)
Give your result in nM as a bare value.

{"compound": "C[C@@H](NC(=O)[C@@H]1CCCN1C(=O)[C@H](CCCNC(=N)N)NC(=O)[C@H](CC1CCCCC1)NC(=O)[C@@H](CCCCN)NC(=O)[C@H](Cc1ccc(O)cc1)N(C)C(=O)[C@H](CO)NC(=O)[C@@H](Cc1cccc2ccccc12)NC(=O)CCc1ccc(F)cc1)C(N)=O [Compound 185] ({Propanoyl(3-(4-F-phenyl))}-[d1Nal]S[NMeY][dK][Cha]RP[dA]-NH2)", "target.system": "LHRH receptors (Rattus norvegicus, UniProt P30969)", "readout.type": "Ki", "recorded.number": 0.0155}

Request: Identify Ki associated with the compound CCNC(=O)[C@@H]1CCCN1C(=O)[C@H](CCCNC(=N)N)NC(=O)[C@H](CC(C)C)NC(=O)[C@@H](Cc1c[nH]c2ccccc12)NC(=O)[C@H](Cc1ccc(O)cc1)N(C)C(=O)[C@H](CO)NC(=O)[C@@H](Cc1cccc2ccccc12)NC(=O)CCc1ccc(F)cc1 [Compound 157] ({Propanoyl(3-(4-F-phenyl))}-[d1Nal]S[NMeY][dW]LRP-NHEt)
Result: 0.0479

Request: Identify Ki associated with the compound CC(C)C[C@H](NC(=O)[C@@H](CCCCNC(=O)N1CCOCC1)NC(=O)[C@H](Cc1ccc(O)cc1)N(C)C(=O)[C@H](CO)NC(=O)[C@@H](Cc1cccc2ccccc12)NC(=O)CCc1ccc(F)cc1)C(=O)N[C@@H](CCCCNC(C)C)C(=O)N1CCC[C@H]1C(=O)N[C@H](C)C(N)=O [Compound 213] ({Propanoyl(3-(4-F-phenyl))}-[d1Nal]S[NMeY][dK]([CO-Morpholide])L[Lys(iPr)]P[dA]-NH2)
Result: 0.0148

Request: Identify Ki associated with the compound CC(C)C[C@H](NC(=O)[C@@H](Cc1cncs1)NC(=O)[C@H](Cc1ccc(O)cc1)N(C)C(=O)[C@H](CO)NC(=O)[C@@H](Cc1cccc2ccccc12)NC(=O)CCc1ccc(F)cc1)C(=O)N[C@@H](CCCCNC(C)C)C(=O)N1CCC[C@H]1C(=O)N[C@H](C)C(N)=O [Compound 204] ({Propanoyl(3-(4-F-phenyl))}-[d1Nal]S[NMeY][X10]L[Lys(iPr)]P[dA]-NH2)
Result: 0.0214

Request: Identify Ki associated with the compound CC(C)C[C@H](NC(=O)[C@@H](CCCCN)NC(=O)[C@H](Cc1ccc(O)cc1)N(C)C(=O)[C@H](CCCc1ccccc1)NC(=O)[C@@H](Cc1cccc2ccccc12)NC(=O)CCc1ccc(F)cc1)C(=O)N[C@@H](CCCNC(=N)N)C(=O)N1CCC[C@H]1C(=O)N[C@H](C)C(N)=O [Compound 176] ({Propanoyl(3-(4-F-phenyl))}-[d1Nal][hhPhe][NMeY][dK]LRP[dA]-NH2)
Result: 2.88

Request: Identify Ki associated with the compound CC(C)C[C@H](NC(=O)[C@@H](Cc1c[nH]c2ccccc12)NC(=O)[C@H](Cc1ccc(O)cc1)NC(=O)[C@H](CO)NC(=O)[C@@H](Cc1c[nH]c2ccccc12)NC(=O)CCc1ccc(F)cc1)C(=O)N[C@@H](CCCNC(=N)N)C(=O)N1CCC[C@H]1C(=O)N[C@H](C)C(N)=O [Compound 162] ({Propanoyl(3-(4-F-phenyl))}-[dW]SY[dW]LRP[dA]-NH2)
Result: 0.0105

Request: Identify Ki associated with the compound CCNC(=O)[C@@H]1CCCN1C(=O)[C@H](CCCNC(=N)N)NC(=O)[C@H](CC(C)C)NC(=O)[C@@H](Cc1c[nH]c2ccccc12)NC(=O)[C@H](Cc1ccc(O)cc1)NC(=O)[C@H](CO)NC(=O)[C@@H](Cc1cccs1)NC(=O)[C@H](Cc1ccccc1)NC(=O)N1CCOCC1 [Compound 236] ({Morpholide-CO}-F[d2Thi]SY[dW]LRP-NHEt)
Result: 0.708

Request: Identify Ki associated with the compound CC(=O)NCCC[C@H](NC(=O)c1ccc(F)cc1)C(=O)N[C@H](Cc1cccc2ccccc12)C(=O)N[C@@H](CO)C(=O)N(C)[C@@H](Cc1ccc(O)cc1)C(=O)N[C@H](CCCCNC(=O)c1cccnc1)C(=O)N[C@@H](CC(C)C)C(=O)N[C@@H](CCCCNC(C)C)C(=O)N1CCC[C@H]1C(=O)N[C@H](C)C(N)=O [Compound 218] ({Benzoyl(4-F)}-[Orn](Ac)[d1Nal]S[NMeY][dK](Nicotinoyl)L[Lys(iPr)]P[dA]-NH2)
Result: 0.832

Request: Identify Ki associated with the compound CCNC(=O)[C@@H]1CCCN1C(=O)[C@H](CCCCNC(C)C)NC(=O)[C@H](CC(C)C)NC(=O)[C@@H](CCCCNC(=O)c1cccnc1)NC(=O)[C@H](Cc1ccc(O)cc1)N(C)C(=O)[C@H](CO)NC(=O)[C@@H](Cc1cccc2ccccc12)NC(=O)CCc1ccc(F)cc1 [Compound 209] ({Propanoyl(3-(4-F-phenyl))}-[d1Nal]S[NMeY][dK](Nicotinoyl)L[Lys(iPr)]P-NHEt)
Result: 0.0024

Request: Identify Ki associated with the compound CCNC(=O)[C@@H]1CCCN1C(=O)[C@H](CCCNC(=N)N)NC(=O)[C@H](CC(C)C)NC(=O)[C@@H](Cc1c[nH]c2ccccc12)NC(=O)[C@H](Cc1ccc(O)cc1)NC(=O)[C@H](CO)NC(=O)[C@H](Cc1cccc2ccccc12)NC(=O)[C@H](Cc1ccccc1)NC(=O)N1CCOCC1 [Compound 237] ({Morpholide-CO}-F[1Nal]SY[dW]LRP-NHEt)
Result: 0.0355

Request: Identify Ki associated with the compound CC(C)C[C@H](NC(=O)[C@@H](CCCCN)NC(=O)[C@H](Cc1ccc(O)cc1)N(C)C(=O)[C@H](CO)NC(=O)[C@@H](Cc1cccnc1)NC(=O)CCc1ccc(F)cc1)C(=O)N[C@@H](CCCNC(=N)N)C(=O)N1CCC[C@H]1C(=O)N[C@H](C)C(N)=O [Compound 170] ({Propanoyl(3-(4-F-phenyl))}-[d3Pal]S[NMeY][dK]LRP[dA]-NH2)
Result: 0.0204
